molecular target: Histamine H1 receptor (Rattus norvegicus, UniProt P31390); assay: Histamine H1 receptor binding assay (3H-pyrilamine, rat cerebellum membrane); details: read-out: H1 Inhibition rate (%)
Sequence (P31390 whole entry): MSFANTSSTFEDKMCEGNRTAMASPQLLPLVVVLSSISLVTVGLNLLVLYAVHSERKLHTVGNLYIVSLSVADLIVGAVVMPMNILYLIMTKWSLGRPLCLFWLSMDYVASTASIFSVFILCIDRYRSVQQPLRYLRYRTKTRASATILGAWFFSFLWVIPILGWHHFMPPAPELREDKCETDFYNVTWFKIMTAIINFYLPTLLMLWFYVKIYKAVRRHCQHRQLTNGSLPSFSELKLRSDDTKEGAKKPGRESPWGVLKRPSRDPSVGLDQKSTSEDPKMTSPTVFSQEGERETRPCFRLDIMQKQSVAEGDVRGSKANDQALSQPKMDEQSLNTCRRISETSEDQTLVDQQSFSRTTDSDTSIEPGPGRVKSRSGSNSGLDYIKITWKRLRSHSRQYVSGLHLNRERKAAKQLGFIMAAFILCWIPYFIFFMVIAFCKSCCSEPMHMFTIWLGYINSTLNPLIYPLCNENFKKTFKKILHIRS
# inhibition at 10 µM >= 40% gives Yes, anything below gives No

{"columns": ["compound", "answer-label"],
 "data": [
  ["CC1CC(=O)N2CCCc3cc(CCCCN4CCC(c5noc6cc(F)ccc56)CC4)cc1c32 (stereo not shown)", "Yes"],
  ["O=C1CCc2cc(CCCN3CCC(c4noc5cc(F)ccc45)CC3)cc3c2N1CC3", "Yes"],
  ["O=C(CCCCN1CCC(c2noc3cc(F)ccc23)CC1)c1cc2c3c(c1)CCC(=O)N3CCC2", "Yes"],
  ["CC1CC(=O)N2CCCc3cc(C(=O)CCCN4CCC(c5noc6cc(F)ccc56)CC4)cc1c32 (stereo not shown)", "Yes"],
  ["O=C(CN1CCC(c2noc3cc(F)ccc23)CC1)c1cc2c3c(c1)CCC(=O)N3CCC2", "Yes"]
]}

# next compound below
stdin: # check: inhibition at 10 µM of O=C(CCCN1CCC(c2noc3cc(F)ccc23)CC1)c1cc2c3c(c1)CCN3C(=O)CC2 is greater than or equal to 40%
stdout: No
